system: CCRF-CEM; test: NCI tumour cell line growth inhibition, 48 h
Calls of active or inactive are those of the source. Rule as the data show it: active = GI50 up to about 1.1 µM and inactive = higher.
Result category, one only: active, inactive

### Prompt Recorded test outcome, item COCCOCCOC1=CC(=O)c2c(O)ccc(O)c2C1=O
### Response inactive

### Prompt Recorded test outcome, item COc1cc(S(=O)(=O)Nc2nc(-c3ccc(N4C(=O)/C(=C\c5cccs5)N=C4c4ccccc4)cc3)cs2)ccc1Cl
### Response inactive

### Prompt Recorded test outcome, item O=C1CCCc2c1c1c(n2Cc2ccccc2)-c2ccccc2C1=O
### Response inactive

### Prompt Recorded test outcome, item CCCNCC(O)CNc1ccc(NCC(O)CNCCC)c2c1C(=O)c1ccccc1C2=O (stereo not drawn)
### Response active

### Prompt Recorded test outcome, item Oc1cc(-c2cccc(OCc3ccccc3)c2)nc2cc3c(cc12)OCO3
### Response active

More entries:
### Prompt Recorded test outcome, item O=C1C[C@@H]2[C@@H](C=CC23CC3)N1O
### Response inactive

### Prompt Recorded test outcome, item CCOC(=O)Nc1ccc(S(=O)(=O)NCCCl)cc1.CCOC(=O)Nc1ccc(S(=O)(=O)NCCCl)cc1.O=C(O)c1ccc(/N=N/Cl)cc1O
### Response inactive

### Prompt Recorded test outcome, item CC(NC(=O)c1ccccc1)(C(=O)O)C(=O)O
### Response inactive

====

GI50 values for the molecules below.
test system: HCT-116; assay: NCI tumour cell line growth inhibition, 48 h
Active and inactive are the calls of the source. No stated cut-off is given here; in the data, active = GI50 up to about 1.1 µM and inactive = higher.

Example molecules with recorded GI50:
### Prompt Which GI50 is listed for CCCCOC(=O)NC(Nc1ccc(S(=O)(=O)Nc2ncccn2)cc1)(C(F)(F)F)C(F)(F)F ?
### Response > 100 µM (inactive)

### Prompt Which GI50 is listed for COC1(c2ccccc2)N=C(S)NN=C1c1ccccc1 (stereo not given) ?
### Response 35.5 µM (inactive)

### Prompt Which GI50 is listed for C=CCC1C(=O)CC2(C)CC(=O)C(CC=C)C12C (stereo not given) ?
### Response > 100 µM (inactive)

### Prompt Which GI50 is listed for CCOC(=O)CSc1nc(-c2ccccc2)c(C#N)c(=O)[nH]1 ?
### Response > 100 µM (inactive)

### Prompt Which GI50 is listed for O=Cc1[nH]c(=O)[nH]c(=O)c1CCl ?
### Response 50.5 µM (inactive)

### Prompt Which GI50 is listed for C1=CC2(C=CC13O[C@H](C1CCCCC1)[C@@H](C1CCCCC1)O3)O[C@H](C1CCCCC1)[C@@H](C1CCCCC1)O2 ?
### Response > 50 µM (inactive)

### Prompt Which GI50 is listed for CSC1=N/C(=C\c2cccs2)C(=O)N1CN1CCOCC1 ?
### Response 31.3 µM (inactive)

### Prompt Which GI50 is listed for O=C(N/C(=C\c1ccc2c(c1)OCO2)c1nc2ccccc2[nH]1)c1ccccc1 ?
### Response 31.3 µM (inactive)

### Prompt Which GI50 is listed for CC1CCC/C1=C(/I)C(=O)c1ccccc1 (stereo not given) ?
### Response 36.6 µM (inactive)

More entries:
### Prompt Which GI50 is listed for NCCCNCCCCN(CCCN)/[N+]([O-])=N\O ?
### Response > 100 µM (inactive)

====

test system: HCT-116; assay: NCI tumour cell line growth inhibition, 48 h
Active and inactive are the calls of the source. Rule as the data show it: active = GI50 up to about 1.1 µM and inactive = higher.
GI50 values for the compounds below.

### Prompt Which GI50 is listed for FC(F)(F)C(C1=NC(C(F)(F)F)(C(F)(F)F)N=C(N2CCOCC2)O1)C(F)(F)F ?
### Response 27.7 µM (inactive)

### Prompt Which GI50 is listed for O=C(c1cccs1)N(C(=S)OC12CC3CC(CC(C3)C1)C2)c1ccccc1 ?
### Response 22.2 µM (inactive)

More entries:
### Prompt Which GI50 is listed for COC12C(COC(=O)NCCO)C3=C(C(=O)C(C)=C(N)C3=O)N1CC1NC12 (stereo not drawn) ?
### Response 18.9 µM (inactive)

These entries and their values trace back to ChEMBL document CHEMBL1201862.
